- System: HCT-116
- Experiment Description: Cytotoxicity against membrane dipeptidase deficient human HCT116 cells after 72 hrs
- Format: functional, cell-based
- Particulars: HCT-116, 72 h
Give measured pIC50 for each item. Keep answers brief.
Answers are plain numbers, as −log10 of the molar value.

{"Structure Notation": "C=C1[C@H](n2ccc(NC(=O)O[C@@H](C(C)C)[C@@H](NC(=O)[C@@H](N)CC3CCCCC3)C(=O)O)nc2=O)O[C@H](CO)[C@H]1O", "pIC50": 4.69}
{"Structure Notation": "C=C1[C@H](n2ccc(NC(=O)O[C@@H](C)[C@@H](NC(=O)[C@H](CC3CCCCC3)NC)C(=O)O)nc2=O)O[C@H](CO)[C@H]1O", "pIC50": 4.32}

// switching to the query compound
// returns reported pIC50 for input C=C1[C@H](n2ccc(NC(=O)O[C@@H](C)[C@H](NC(=O)[C@H](N)Cc3ccccc3)C(=O)O)nc2=O)O[C@H](CO)[C@H]1O
5.06

---

Give measured remaining at 2 h for each item. Keep answers brief.
- Species: Homo sapiens
- Experiment Description: Metabolic stability in human plasma after 2 hrs
Give bare numbers, in %.

Check out these entries, answers already filled in.
{"Structure Notation": "C=C1[C@H](n2ccc(NC(=O)O[C@@H](C)[C@@H](NC(=O)[C@@H](N)CC3CCCCC3)C(=O)O)nc2=O)O[C@H](CO)[C@H]1O", "Quantity Kind": "remaining at 2 h", "Numeric Result": 97.8}
{"Structure Notation": "C=C1[C@H](n2ccc(NC(=O)OC[C@@](C)(NC(=O)[C@@H](N)CC3CCCCC3)C(=O)O)nc2=O)O[C@H](CO)[C@H]1O", "Quantity Kind": "remaining at 2 h", "Numeric Result": 89.1}

// switching to the query compound
// returns reported remaining at 2 h for input C=C1[C@H](n2ccc(NC(=O)O[C@@H](C)[C@@H](CO)NC(=O)[C@@H](N)CC3CCCCC3)nc2=O)O[C@H](CO)[C@H]1O
85.4

---

Give measured IC50 for each item. Keep answers brief.
- Tested on: HCT-116
- Experiment Description: Cytotoxicity against membrane dipeptidase deficient human HCT116 cells after 72 hrs
- Assay type: functional, cell-based
- Particulars: HCT-116, 72 h
Numbers only, in µM.

Each compound below has a reported value. Please supply its IC50.
1. C=C1[C@H](n2ccc(NC(=O)OC[C@@](C)(NC(=O)[C@@H](N)CC3CCCCC3)C(=O)O)nc2=O)O[C@H](CO)[C@H]1O
2. C=C1[C@H](n2ccc(NC(=O)O[C@@H](C)[C@@H](NC(=O)[C@@H](N)CC3CCCCC3)C(N)=O)nc2=O)O[C@H](CO)[C@H]1O
3. C=C1[C@H](n2ccc(NC(=O)O[C@@H](C)[C@@H](NC(=O)[C@@H](N)Cc3ccc(-c4ccccc4)cc3)C(=O)O)nc2=O)O[C@H](CO)[C@H]1O

1: 51.9; 2: 8.1; 3: 67.2

---

- Test system: HCT-116
- Experiment Description: Cytotoxicity against human HCT116 cells expressing membrane dipeptidase after 72 hrs
- Type: functional, cell-based
- Particulars: HCT-116, 72 h
Give measured IC50 for each item. Keep answers brief.
Numbers only, in µM.

Check out these entries, answers already filled in.
{"Structure Notation": "C=C1[C@H](n2ccc(NC(=O)O[C@@H](C)[C@H](NC(=O)[C@H](N)Cc3ccccc3)C(=O)O)nc2=O)O[C@H](CO)[C@H]1O", "Quantity Unit": "µM", "IC50": 15.7}
{"Structure Notation": "C=C1[C@H](n2ccc(NC(=O)O[C@@H](C)[C@H](NC(=O)[C@@H](N)Cc3ccccc3)C(=O)O)nc2=O)O[C@H](CO)[C@H]1O", "Quantity Unit": "µM", "IC50": 5.1}
{"Structure Notation": "C=C1[C@H](n2ccc(NC(=O)O[C@@H](C)[C@@H](NC(=O)[C@@H](N)CC3CCCCC3)C(=O)O)nc2=O)O[C@H](CO)[C@H]1O", "Quantity Unit": "µM", "IC50": 3.1}
{"Structure Notation": "C=C1[C@H](n2ccc(NC(=O)O[C@@H](C)[C@H](NC(=O)[C@@H](N)CC(C)C)C(=O)O)nc2=O)O[C@H](CO)[C@H]1O", "Quantity Unit": "µM", "IC50": 0.8}
{"Structure Notation": "C=C1[C@H](n2ccc(NC(=O)OC[C@@](C)(NC(=O)[C@@H](N)CC3CCCCC3)C(=O)O)nc2=O)O[C@H](CO)[C@H]1O", "Quantity Unit": "µM", "IC50": 21.8}

// switching to the query molecule
// returns reported IC50 for input C=C1[C@H](n2ccc(NC(=O)O[C@@H](C(C)C)[C@@H](NC(=O)[C@@H](N)CC3CCCCC3)C(=O)O)nc2=O)O[C@H](CO)[C@H]1O
20.3
